Tested on: Pseudomonas aeruginosa MB9798 vs MB9799
Conditions: fold difference between efflux+ (MB9798) and efflux− (MB9799) strains; imipenem at 2 μg/mL
endpoint: Efflux ratio
// response body must contain only the number

IN: For the compound NCCNC(=O)c1cc(-c2ccc(S(=O)(=O)NCCN)c(S(N)(=O)=O)c2-c2nn[nH]n2)ccc1N [Example 451] , give its measured Efflux ratio value.
OUT: 2.00

***
IN: For the compound NC[C@H](O)CNS(=O)(=O)c1ccc(-c2cnc(N)c(F)c2)c(-c2nn[nH]n2)c1S(N)(=O)=O [Example 469] , give its measured Efflux ratio value.
OUT: 1.00

IN: For the compound Nc1ccc(-c2ccc(S(=O)(=O)NC3CC(N)C3)c(S(N)(=O)=O)c2-c2nn[nH]n2)cn1 (stereo not drawn) [Example 483] , give its measured Efflux ratio value.
OUT: 1.00

Measured values drawn from patent US10221163B2 for this set.
